System: NCI/ADR-RES ovarian
Method Description: NCI tumour cell line growth inhibition, 48 h
Here, each record is paired with measured GI50 data.

Here are 2 molecules together with their reported answers.
{"Molecule": "COc1cc(/C=C/C(=O)c2cc(OC)c(OC)c(OC)c2)ccc1Oc1nc2c(c(=O)n(C)c(=O)n2C)n1C", "GI50": "2.96 µM"}
{"Molecule": "Cc1cccc(NC(=O)c2sc3nc4c(cc3c2N)CCCC4)c1", "GI50": "4.59 µM"}

The molecule listed as COc1cc(/C=C2\CC3C4CCC5=CC(=O)CC[C@]5(C)C4CC[C@]3(C)C2=O)ccc1OCCCn1ccnc1 (stereo not given in full) has a reported GI50 of 4.51 µM

The molecule listed as COc1cccc2c1C(CO)N1C(C#N)C3CC(C(=O)O)C(C1C2)N3C (stereo not given) has a reported GI50 of 0.194 µM

The molecule listed as CC(C)(C)c1[nH]nc2c1C(c1cc3ccccc3[nH]c1=O)Nc1cc(C(=O)Nc3ccc(Cl)cc3)ccc1N2 (stereo not given) has a reported GI50 of > 100 µM

The measured values listed here are drawn from PubChem BioAssay (NCI).
